# Test system: S-adenosylmethionine decarboxylase (Mus musculus)
# METHOD: Effect of compound on S-Adenosyl-methionine decarboxylase in L1210 cells
# Design: unit not given here
A collection of molecules and their measured Activity

MOLECULE	ASSAY SYSTEM	Activity
CCNCC[C@@H](O)CNCCCCNC[C@H](O)CCNCC	S-adenosylmethionine decarboxylase (Mus musculus)	68
CCNCCCCNCCCCNCCCCNCC [DIETHYLHOMOSPERMINE]	S-adenosylmethionine decarboxylase (Mus musculus)	41
CCNCC[C@H](O)CNCCCCNC[C@@H](O)CCNCC [IVOSPEMIN]	S-adenosylmethionine decarboxylase (Mus musculus)	52
CCNCCCNCCCNCCCNCC [BIS(ETHYL)NORSPERMINE]	S-adenosylmethionine decarboxylase (Mus musculus)	42
